Consider the following compounds; for each one, report its ATP Hydrolysis (IC40 μM).
target: F1F0-ATPase (Bos taurus); assay: Inhibition of ATP hydrolysis by the F1F0-ATPase; assay type: biochemical; conditions: IC40: concentration for 40% inhibition

- compound structure: "O=C(N=C(NCCc1c[nH]cn1)Nc1cccc(-c2ccccc2)c1)c1cccc(Cl)c1"
  ATP Hydrolysis (IC40 μM): ">10 µM"

// each compound listed below needs its ATP Hydrolysis (IC40 μM)
1. O=C(N=C(NCCc1c[nH]cn1)Nc1cccc(-c2ccccc2)c1)c1ccc([N+](=O)[O-])cc1
2. CCc1ccc(NC(=NC(=O)c2cccc(Cl)c2)NCCc2c[nH]cn2)cc1
3. N#Cc1cccc(-c2ccc(NC(=NC(=O)c3cccc(Cl)c3)NCCc3c[nH]cn3)cc2)c1
4. O=C(N=C(NCCc1c[nH]cn1)Nc1cccc(-c2ccccc2)c1)c1cccc(C(F)(F)F)c1
5. Cc1cccc(C(=O)N=C(NCCc2c[nH]cn2)Nc2cccc(-c3ccccc3)c2)c1
6. CS(=O)(=O)c1cccc(NC(=NC(=O)c2cccc(Cl)c2)NCCc2cnc[nH]2)c1
7. O=C(/N=C(/NCCN1CCNC1=O)Nc1ccc(-c2ccccc2)cc1)c1cccc(Cl)c1
8. O=C(N=C(NCCc1c[nH]cn1)Nc1ccccc1C(F)(F)F)c1cccc(Cl)c1

Reply text:
>30 µM
>20 µM
>30 µM
>10 µM
>10 µM
>30 µM
>30 µM
>20 µM

// each compound listed below needs its ATP Hydrolysis (IC40 μM)
1. O=C(N=C(NCCc1c[nH]cn1)Nc1ccc(-c2ccccc2)cc1)c1ccc(Cl)cc1
2. Cc1ccccc1C(=O)N=C(NCCc1c[nH]cn1)Nc1ccccc1-c1ccccc1
3. O=C(N=C(NCCc1c[nH]cn1)Nc1cccc(-c2ccccc2)c1)c1cccc(Br)c1

Reply text:
1. >10 µM
2. >30 µM
3. >10 µM
